# tested target: Polycomb protein EED (Homo sapiens, UniProt O75530)
# Sequence (O75530 whole entry, the tested form may be a part): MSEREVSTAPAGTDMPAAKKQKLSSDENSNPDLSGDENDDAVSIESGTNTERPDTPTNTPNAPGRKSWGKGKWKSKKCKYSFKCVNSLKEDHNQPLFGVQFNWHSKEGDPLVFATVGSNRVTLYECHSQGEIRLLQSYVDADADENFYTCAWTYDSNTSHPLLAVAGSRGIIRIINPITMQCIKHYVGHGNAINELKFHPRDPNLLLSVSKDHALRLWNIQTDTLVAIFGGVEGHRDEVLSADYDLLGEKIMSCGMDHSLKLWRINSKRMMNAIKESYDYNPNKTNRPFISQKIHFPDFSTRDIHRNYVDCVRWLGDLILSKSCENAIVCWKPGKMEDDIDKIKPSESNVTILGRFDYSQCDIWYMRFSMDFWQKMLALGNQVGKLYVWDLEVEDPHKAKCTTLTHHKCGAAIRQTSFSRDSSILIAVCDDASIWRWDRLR
# experimental details: Binding affinity to EED (unknown origin) by TR-FRET based binding assay
observed property: Ki
Reply with the number, then its unit.

Input line: Quick one: Ki of CN(C)[C@H]1CN(C2CCc3cccc(F)c32)C[C@@H]1c1cn(C)c2ccccc12 (stereo partly specified) ?
Output line: 11 nM

* * *

# experimental details: Plasma concentration in SCID mouse xenografted with human G-401 cells at 125 mg/kg, po BID administered for 21 days and measured at 3 hrs post dose on day 21 by LC-MS/MS analysis
# Format: ADME, organism-based
# test settings: time 21 day
observed property: concentration at 504 h (µM)
Note: unit µM is implicit; provide only the numeric part.

Input line: What value of concentration at 504 h has been reported for the following molecule? Cc1cc(C)c(CNC(=O)c2cc(-c3ccc(CN4CCOCC4)cc3)cc3c2cnn3C2CCCC2)c(=O)[nH]1
Output line: 8

* * *

# tested target: Polycomb protein EED (Homo sapiens, UniProt O75530)
# experimental details: Displacement of OG(488) labeled probe from GST-tagged EED (unknown origin) incubated for 1 hr by lanthaScreen TR-FRET method
observed property: Ki (nM)
I only need the number, in nM, no unit after it.

Input line: If you can, please state the reported Ki value of CN(C)[C@H]1CN(Cc2ccccc2)C[C@@H]1c1ccc(N2CCN(S(C)(=O)=O)CC2)cc1 .
Output line: 1830

* * *

# tested target: Polycomb protein EED (Homo sapiens, UniProt O75530)
# experimental details: Binding affinity to human N-terminal His6-tagged/thrombin cleavage site fused/ AVI-tagged EED (1 to 441 residues) expressed in Escherichia coli BL21(DE3) cells by surface plasmon resonance method
pKd: −log10 of the molar value.
Documented pKd across a set of compounds

>  <molecular string>
Cc1nc(CCC(=O)NCCCCC(=O)N[C@H](C(=O)N2C[C@H](O)C[C@H]2C(=O)NCc2ccc(-c3scnc3C)cc2)C(C)(C)C)ccc1-c1cnc(NCc2c(F)ccc3c2CCO3)n2cnnc12

>  <pKd>
> 9.00

$$$$

Lab note: next compound to report on.
Input line: Request the reported pKd associated with Cc1nc(CCC(=O)NCCOc2ccc(OCC(=O)N[C@H](C(=O)N3C[C@H](O)C[C@H]3C(=O)NCc3ccc(-c4scnc4C)cc3)C(C)(C)C)cc2)ccc1-c1cnc(NCc2c(F)ccc3c2CCO3)n2cnnc12
Output line: > 9.00

* * *

# tested target: Polycomb protein EED (Homo sapiens)
# experimental details: Displacement of UNC5114-biotin tracer ligand from N-terminal 6His-tagged EED (1 to 441 residues) (unknown origin) expressed in Escherichia coli Rosetta2 BL21(DE3)pLysS cells measured after 1 hr by TR-FRET analysis
observed property: IC50
Report the figure along with its unit, number first.

Input line: Entry CS(=O)(=O)c1ccc(-c2cnc(NCc3ccco3)n3cnnc23)cc1 has what IC50?
Output line: 45 nM

* * *

# tested target: Polycomb protein EED (Homo sapiens, UniProt O75530)
# experimental details: Binding affinity to EED in PRC2 complex (unknown origin) using H3K27me0 (21 to 44 residue) peptide as substrate by LC-MS analysis
observed property: pIC50
// scale note: pIC50 = -log10(conc_M); give the bare number

Input line: pIC50 of CS(=O)(=O)c1ccc(-c2cnc(NCc3ccco3)n3cnnc23)cc1 on Polycomb protein EED (Homo sapiens, UniProt O75530)?
Output line: 7.63

* * *

# tested target: Histone-lysine N-methyltransferase EZH1 (Homo sapiens)
# Sequence (Q92800 whole entry): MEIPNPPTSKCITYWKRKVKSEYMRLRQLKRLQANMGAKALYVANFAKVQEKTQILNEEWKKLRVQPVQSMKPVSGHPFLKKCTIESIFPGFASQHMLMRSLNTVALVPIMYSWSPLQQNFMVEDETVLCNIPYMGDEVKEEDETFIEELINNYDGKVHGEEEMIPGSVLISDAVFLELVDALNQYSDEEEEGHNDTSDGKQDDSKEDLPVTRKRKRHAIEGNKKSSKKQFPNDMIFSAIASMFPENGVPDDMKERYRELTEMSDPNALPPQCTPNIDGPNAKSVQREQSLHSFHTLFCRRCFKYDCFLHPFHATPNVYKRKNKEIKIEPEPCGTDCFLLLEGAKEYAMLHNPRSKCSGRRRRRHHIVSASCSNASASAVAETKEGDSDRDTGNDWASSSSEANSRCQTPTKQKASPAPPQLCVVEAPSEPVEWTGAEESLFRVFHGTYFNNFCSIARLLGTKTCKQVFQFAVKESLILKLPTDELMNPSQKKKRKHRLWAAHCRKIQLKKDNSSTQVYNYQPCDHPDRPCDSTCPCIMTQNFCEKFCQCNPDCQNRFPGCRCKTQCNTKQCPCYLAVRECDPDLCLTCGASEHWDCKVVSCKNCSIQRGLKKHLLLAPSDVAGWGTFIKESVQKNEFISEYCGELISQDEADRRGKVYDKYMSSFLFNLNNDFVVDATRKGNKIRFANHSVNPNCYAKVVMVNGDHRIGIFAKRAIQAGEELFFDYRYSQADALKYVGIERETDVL
# experimental details: Inhibition of EZH1 in PRC2 complex (unknown origin) using biotinylated peptide as substrate in presence of S-adenosylmethionine
observed property: IC50

Input line: // IC50 lookup, key: Cc1cc(C)c(CNC(=O)c2cc(-c3ccc(CN4CCOCC4)cc3)cc3c2cnn3C2CCCC2)c(=O)[nH]1
Output line: 45 nM

* * *

# experimental details: Plasma concentration in mouse xenografted with human Karpas-422 cells at 40 mg/kg, po
# Assay type: ADME, organism-based
# test settings: in vivo
observed property: concentration

Input line: Fill blank: measured concentration of the compound CS(=O)(=O)c1ccc(-c2cnc(NCc3ccco3)n3cnnc23)cc1 is ____.
Output line: > 30 µM
